Ref: ChEMBL document CHEMBL1127533

tested on: Mus musculus; experiment: Analgesic potency was evaluated as effective dose after subcutaneous administration.; assay type: functional; details: Mus musculus, sc; read-out: ED50
MEASURED ENDPOINT: ED50 (mg/kg)
Only the number, expressed in mg/kg, is required.

>  <COMPOUND>
C[C@@H](Oc1ccc(Cl)cc1)C(=O)OC1CC2CCC(C1)N2C (stereo not given in full)

>  <ENDPOINT UNIT>
mg/kg

>  <ED50>
16

$$$$
>  <COMPOUND>
CCC(Oc1ccc2cc(Br)ccc2c1)C(=O)OC1CC2CCC(C1)N2C.O=C(O)/C=C\C(=O)O (stereo not given)

>  <ENDPOINT UNIT>
mg/kg

>  <ED50>
42

$$$$
>  <COMPOUND>
CCC(Oc1ccc(F)cc1)C(=O)OC1CC2CCC(C1)N2C (stereo not given)

>  <ENDPOINT UNIT>
mg/kg

>  <ED50>
37

$$$$
>  <COMPOUND>
CC(Sc1ccc(Cl)cc1)C(=O)OC1CC2CCC(C1)N2C.O=C(O)/C=C\C(=O)O (racemic)

>  <ENDPOINT UNIT>
mg/kg

>  <ED50>
19

$$$$
>  <COMPOUND>
C[C@@H](Sc1ccc(Cl)cc1)C(=O)OC1CC2CCC(C1)N2C (stereo not given in full)

>  <ENDPOINT UNIT>
mg/kg

>  <ED50>
14

$$$$
>  <COMPOUND>
CC(C(=O)OC1CC2CCC(C1)N2C)N(C)c1ccc(Cl)cc1.O=C(O)/C=C\C(=O)O (stereo not given)

>  <ENDPOINT UNIT>
mg/kg

>  <ED50>
29

$$$$
>  <COMPOUND>
CC(Sc1ccc(F)cc1)C(=O)OC1CC2CCC(C1)N2C (stereo not given)

>  <ENDPOINT UNIT>
mg/kg

>  <ED50>
15

$$$$
>  <COMPOUND>
CC[C@@H](Sc1ccc(Cl)cc1)C(=O)OC1CC2CCC(C1)N2C (stereo not given in full)

>  <ENDPOINT UNIT>
mg/kg

>  <ED50>
11

$$$$

Fill blank: measured ED50 of the compound CC(C)C(Sc1ccc(Cl)cc1)C(=O)OC1CC2CCC(C1)N2C.O=C(O)/C=C\C(=O)O (stereo not given) is ____.
41

Name the reported ED50 value associated with the compound CCC(Oc1ccccc1)C(=O)OC1CC2CCC(C1)N2C (stereo not given)
31
